- Tested on: K562 CRISPRi cells
- ASSAY METHOD TEXT: Constant region variant library pooled growth screen, K562
- Type: cell-based, human
- CONDITION PARAMETERS: sgRNA constant region variants; activity relative to the original, un-modified constant region cr995
MEASURED PROPERTY: Mean relative activity
Please respond with just the number, no unit label.

Below are worked cases with known answers.
* cr542 (nucleic acid, listed as DNA, chemistry not fully specified) guide: GTTTAAGAGCTAAGCTGGAAACAGCATAGCAAGATTAAATAAGGCTAGTCCGTCATCGACTTGAAAAAGTGGCACCGAGTCGGTGCT | 0.02115
* cr763 (nucleic acid, listed as DNA, chemistry not fully specified) guide: GTTTAAGAGCTAAGCTGGAAACAGCATAGCAAGTTTAAATAAGGCTAGCCCGTTATCAACTTGAAAAAGTGGCACCGAGTCGGTGCT | 0.7264
* cr104 (nucleic acid, listed as DNA, chemistry not fully specified) guide: GTTTAAGAGCTAAGCTGGAAACAGCATAGCAAGTTTAAATAAGGCTAGTCCGTTATCAACTTGAAAAAGTGGAACCGAGTCGGTGCT | 0.8063

The record that follows has no Mean relative activity shown yet.
What the record says about cr189 (nucleic acid, listed as DNA, chemistry not fully specified) guide: GTTTAAGAGCTAAGCTGGAAACAGCATAGCAAGTTTAAATAAGGCTAGTCCGTTATCAACTTGAAAAAGTGGCACCAAGTCGGTGCT : Mean relative activity is 0.627
